study.system: GST-PPARG-LBD (Homo sapiens (Human), UniProt P37231)
Sequence (P37231 238-503): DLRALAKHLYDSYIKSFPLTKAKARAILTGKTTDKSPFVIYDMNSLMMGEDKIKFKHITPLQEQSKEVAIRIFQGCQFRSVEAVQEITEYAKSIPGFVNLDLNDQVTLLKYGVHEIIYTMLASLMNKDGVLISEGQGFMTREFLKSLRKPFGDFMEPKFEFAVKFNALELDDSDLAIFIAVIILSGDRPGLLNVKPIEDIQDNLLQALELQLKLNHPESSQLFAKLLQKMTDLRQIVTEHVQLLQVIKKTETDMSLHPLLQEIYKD
assay.overview: Lanthascreen PPARG competitive binding assay (Invitrogen, TR-FRET)
run.conditions: Lanthascreen competitive binding; NA = not active; inc = incomplete curve; read-out: IC50 (nM) Lantha
endpoint.name: IC50 (nM)
Field: numeric (nM). Do not append units.

Example cases with answers are listed next.
chemical.structure	endpoint.name	unit.label	result.number
Cc1c(C)n(Cc2ccc(-c3ccccc3C(=O)O)cc2)c2ccc(C(=O)N[C@@H](C)c3ccc(F)cc3F)cc12	IC50	nM	5
Cc1c(C)n(Cc2ccc(-c3ccccc3C(=O)O)cc2)c2ccc(C(=O)N[C@H](C)c3ccnc(C4CC4)c3)cc12	IC50	nM	15

Continue with the compound presented below.
Request: // lookup IC50 for CC[C@@H](NC(=O)c1ccc2c(ccn2Cc2ccccc2-c2cccc(C(=O)O)c2)c1)c1ccccc1
Response: 4

* * *

study.system: GST-PPARG-LBD (Homo sapiens (Human))
assay.overview: Lanthascreen PPARG competitive binding assay (Invitrogen, TR-FRET)
run.conditions: Lanthascreen PPARG competitive binding; inc = incomplete curve; NA = not active; read-out: IC50 (nM) Lantha
endpoint.name: IC50

compound	IC50
Cc1c(C)n(Cc2ccc(-c3ccccc3C(N)=O)cc2)c2ccc(C(=O)N[C@@H](C)c3cccc(C(C)C)c3)cc12 [Example 315]	62 nM
Cc1c(C)n(Cc2ccc(-c3ccccc3C(=O)O)cc2)c2ccc(C(=O)N[C@@H](C)c3cccc(C(F)(F)F)c3F)cc12 [Example 299]	27 nM
Cc1c(C)n(Cc2ccc(-c3ccccc3C(=O)O)cc2)c2ccc(C(=O)NC(C)c3cncc(Br)c3)cc12 (stereo not drawn) [Example 275]	8 nM
Cc1c(C)n(Cc2ccc(-c3ccccc3C(=O)O)cc2)c2ccc(C(=O)N[C@@H](C)c3cc(F)c(F)cc3F)cc12 [Example 301]	8 nM
Cc1c(C)n(Cc2ccc(-c3ccccc3C(=O)O)cc2)c2ccc(C(=O)N[C@@H](C)c3ccc(C4CC4)cc3)cc12 [Example 304]	50 nM
CNC(=O)c1ccccc1-c1ccc(Cn2c(C)c(C)c3cc(C(=O)N[C@@H](C)c4cccc(C(C)C)c4)ccc32)cc1 [Example 311]	76 nM

Request: // lookup IC50 for Cc1c(C)n(Cc2ccc(-c3ccccc3C(=O)N3CC[C@H](O)C3)cc2)c2ccc(C(=O)N[C@@H](C)c3cccc(C(C)C)c3)cc12 [Example 306]
Response: > 500 nM

Request: Another: Cc1c(C)n(Cc2ccc(-c3ccccc3C(=O)O)cc2)c2ccc(C(=O)N[C@H](C)c3cccc(Br)c3)cc12 [Example 296]
Response: < 1 nM

Request: Another: Cc1c(C)n(Cc2ccc(-c3ccccc3C(=O)O)cc2)c2ccc(C(=O)N[C@H](C)c3ccc(S(C)(=O)=O)cc3)cc12 [Example 276]
Response: 11 nM

Request: Another: Cc1c(C)n(Cc2ccc(-c3ccccc3C(=O)NC[C@@H](O)C(=O)N(C)C)cc2)c2ccc(C(=O)N[C@@H](C)c3cccc(C(C)C)c3)cc12 [Example 309]
Response: > 1000 nM

Request: Another: Cc1c(C)n(Cc2ccc(-c3ccccc3C(=O)NCCO)cc2)c2ccc(C(=O)N[C@@H](C)c3cccc(C(C)C)c3)cc12 [Example 307]
Response: 600 nM

Request: Another: Cc1c(C)n(Cc2ccc(-c3ccccc3C#N)cc2)c2ccc(C(=O)N[C@@H](C)c3ccc(OC(C)C)cc3)cc12 [Example 278]
Response: 808 nM

Request: Another: Cc1c(C)n(Cc2ccc(-c3ccccc3C(=O)O)cc2)c2ccc(C(=O)N[C@@H](C)c3cc(C(F)(F)F)ccc3Cl)cc12 [Example 302]
Response: 3 nM

Request: Another: Cc1c(C)n(Cc2ccc(-c3ccccc3C(=O)NCCN(C)C)cc2)c2ccc(C(=O)N[C@@H](C)c3cccc(C(C)C)c3)cc12 [Example 310]
Response: > 1000 nM

Request: Another: Cc1c(C)n(Cc2ccc(-c3ccccc3C(=O)NS(C)(=O)=O)cc2)c2ccc(C(=O)N[C@@H](C)c3cccc(C(C)C)c3)cc12 [Example 314]
Response: 285 nM

Request: Another: Cc1c(C)n(Cc2ccc(-c3ccccc3C(=O)N(C)C)cc2)c2ccc(C(=O)N[C@@H](C)c3cccc(C(C)C)c3)cc12 [Example 312]
Response: 148 nM

Request: Another: Cc1c(C)n(Cc2ccc(-c3ccccc3C(=O)NC3CC3)cc2)c2ccc(C(=O)N[C@@H](C)c3cccc(C(C)C)c3)cc12 [Example 305]
Response: 94 nM

Request: Another: Cc1c(C)n(Cc2ccc(-c3ccccc3C(=O)O)cc2)c2ccc(C(=O)N[C@@H](C)c3cccc(C4CC4)n3)cc12 [Example 274]
Response: 19 nM
